This collection of values is drawn from patent US20130102009A1.

Kindly supply the reported Emax values for the records listed here.
biological target: SIRT1 (Homo sapiens); test: Mass spectrometry based SIRT1 activation assay (TAMRA/5TMR-labeled 20mer peptide); format: biochemical; conditions: 25 min; percent maximum fold activation of SIRT1; read-out: % FOLD ACT.
Sequence (Q96EB6 whole entry): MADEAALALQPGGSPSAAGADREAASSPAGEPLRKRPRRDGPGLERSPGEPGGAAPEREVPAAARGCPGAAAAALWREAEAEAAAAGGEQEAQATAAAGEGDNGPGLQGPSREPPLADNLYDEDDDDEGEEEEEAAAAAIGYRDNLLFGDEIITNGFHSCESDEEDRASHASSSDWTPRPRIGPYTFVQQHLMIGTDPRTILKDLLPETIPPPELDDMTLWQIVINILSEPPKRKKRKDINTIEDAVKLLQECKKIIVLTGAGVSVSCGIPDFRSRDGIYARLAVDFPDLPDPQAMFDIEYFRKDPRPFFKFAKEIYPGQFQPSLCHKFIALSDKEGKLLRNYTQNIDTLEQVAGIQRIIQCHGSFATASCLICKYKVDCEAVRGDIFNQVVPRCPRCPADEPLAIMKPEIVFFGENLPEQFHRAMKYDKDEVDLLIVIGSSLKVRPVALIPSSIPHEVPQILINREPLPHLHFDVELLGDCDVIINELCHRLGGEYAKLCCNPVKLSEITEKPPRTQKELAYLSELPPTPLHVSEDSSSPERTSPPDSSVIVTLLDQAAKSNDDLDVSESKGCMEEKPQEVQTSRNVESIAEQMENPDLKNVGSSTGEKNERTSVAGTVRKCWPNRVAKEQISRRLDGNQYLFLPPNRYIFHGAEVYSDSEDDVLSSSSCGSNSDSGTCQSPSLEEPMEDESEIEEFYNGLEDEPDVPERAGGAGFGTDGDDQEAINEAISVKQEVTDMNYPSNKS

Q: Request the reported Emax associated with "CCCCN(CCCC)c1cc(-c2nc3c(C(=O)Nc4cccc(COC5CCNCC5)c4)cccc3[nH]2)ccn1"
Result: ≥ 200%

Q: Request the reported Emax associated with "COc1ccc(C(=O)Nc2ccccc2-c2nc3cc(COC4CCNCC4)cnc3s2)cc1OC"
Result: ≥ 200%

Q: Request the reported Emax associated with "N#Cc1ccc(NC(=O)c2cccc3[nH]c(-c4ccc(N5CCNCC5)nc4)nc23)cc1C(F)(F)F"
Result: ≥ 200%
